Test system: MALME-3M melanoma
Assay: NCI tumour cell line growth inhibition, 48 h
Assay endpoint: TGI (µM)
Record the value in µM, omitting the unit from your answer.

C[C@]12CC[C@H]3[C@@H](CC[C@]4(O)C[C@@H](O)CC[C@]34C=O)[C@@]1(O)CC[C@@H]2C1=CC(=O)OC1 :: 2.03

Result for COc1nn(C)cc1Nc1nccc(-c2c[nH]c3c(NC(=O)[C@@H](C)N4CCN(C)CC4)cccc23)n1 , tested on MALME-3M melanoma, TGI: 73.1

Result for Cc1cc(N(CCC#N)S(=O)(=O)c2ccccc2)ccc1C=Nc1ccc(C(=O)O)cc1 , tested on MALME-3M melanoma, TGI: 12

Result for COc1ccc(C2N(c3ccc(C)c(N=C=O)c3)C(=O)N3C(c4ccc(OC)cc4)N(c4ccc(C)c(N=C=O)c4)C(=O)N23)cc1 (stereo unspecified) , tested on MALME-3M melanoma, TGI: 96.1

Result for CC1(C)C2CC3C(C)(C2)C31c1cc(Cl)ccc1N (stereo unspecified) , tested on MALME-3M melanoma, TGI: 21.3

Result for Nc1nc(-c2ccc3c(c2)/C(=C\c2cc(Br)c(O)c(Br)c2)C(=O)N3)cs1 , tested on MALME-3M melanoma, TGI: 17.4

Result for C=C(C)C1(Sc2ccc(OC)cc2)CC1 , tested on MALME-3M melanoma, TGI: 66.9

Result for CCO/C=C\C12CCCC1NC(c1ccccc1)(c1ccccc1)O2 (stereo unspecified) , tested on MALME-3M melanoma, TGI: 54.3

Result for Oc1c(C(Nc2ccccn2)c2ccccc2)ccc2cccnc12 (stereo unspecified) , tested on MALME-3M melanoma, TGI: 22

* * *

Tested on: TK-10 renal
Experiment: NCI tumour cell line growth inhibition, 48 h; in the data active = GI50 below about 0.43 µM; inactive = the rest
Select the correct class. Options are active, inactive and nothing else.

CC(C)(C)NCC(O)c1ccccc1Cl (stereo unspecified) :: inactive
CC1=CC(C)=N/C(=N/S(=O)(=O)c2cc(C)c(Cl)cc2SCc2ccccc2)NN1 :: inactive
CN(C(=O)C(C)(C)C)c1ccccc1I(=O)=O :: inactive
COC(=O)Nc1nc2ccc(C(=O)c3cccc(I)c3)cc2[nH]1 :: inactive
C=CCc1c(O)c(C(=O)/C=C/c2ccc(Cl)cc2)c(OC)c2ccoc12 :: inactive
COc1cc2c(cc1OCC(=O)Nc1ccc(Cl)cc1C(=O)c1ccccc1Cl)N=CC1CCCN1C2=O (stereo unspecified) :: inactive
CC1=CC2(C)/C=C(C)/C=C\CC(O)/C=C3/C=CC(=C4C(=O)OC2(CC1C)C4=O)OC3 (stereo unspecified) :: inactive
Cc1[nH]nc(C(F)(F)F)c1Cc1sc2c(c1C(=O)N1C[C@](C)(O)CO1)c(=O)n(C)c(=O)n2C(C)C :: inactive

What outcome does the record of this test show for CCCCCCC(=O)NC1=C(N2CC2)C(=O)C(NC(=O)CCCCCC)=C(N2CC2)C1=O ?
inactive

What outcome does the record of this test show for Clc1cnc(Nc2ccc(OCCN3CCCC3)cc2)nc1NCc1ccco1 ?
inactive

What outcome does the record of this test show for Cn1nc(C(F)(F)F)cc1-c1cc(Cl)c(OCc2ccc(Cl)cc2)c(-c2ccc(Cl)c(C(F)(F)F)c2)c1O ?
inactive

What outcome does the record of this test show for CCOP(=O)(OCC)/C(=C/n1c(=S)[nH]c2ccccc21)C(=O)OC ?
inactive

* * *

Test system: SF-539 CNS
Experiment: NCI tumour cell line growth inhibition, 48 h
Assay endpoint: TGI (µM)
Record the value in µM, omitting the unit from your answer.

Example results:
Clc1ccc2c(NC3CCC(N4CCCCC4)CC3)ccnc2c1 (stereo unspecified) :: 36.2
CC12CCC(C1)C(C)(C)C2OC(=O)c1ccccc1N (stereo unspecified) :: 33.7

Result for Cc1cc(OCc2ccc(C(F)(F)F)cc2)c2c(c1)C(=O)C=C(NCCN1CCCC1)C2=O , tested on SF-539 CNS, TGI: 3.24

Result for Cc1cc(I)cc(CN(C)CCCN2CCC(C)CC2)c1O , tested on SF-539 CNS, TGI: 27.5

Result for Oc1c(C(Nc2ccccn2)c2ccccc2)ccc2cccnc12 (stereo unspecified) , tested on SF-539 CNS, TGI: 9.68

Result for NS(=O)(=O)c1ccc(-n2nc3c(c2-c2cccs2)Cc2ccccc2-3)cc1 , tested on SF-539 CNS, TGI: 25.1

Result for COc1cc2c(cc1OCC(=O)Nc1ccc(Cl)cc1C(=O)c1ccccc1Cl)N=CC1CCCN1C2=O (stereo unspecified) , tested on SF-539 CNS, TGI: 33.9

* * *

Reported TGI by item:
Tested on: OVCAR-4 ovarian
Experiment: NCI tumour cell line growth inhibition, 48 h
Record the value in µM, omitting the unit from your answer.

CC1(C)CCC2=C(O1)c1ccccc1C(=Nc1ccc([N+](=O)[O-])cc1)C2=O :: 38.7
COc1cc2c(cc1OCC(=O)Nc1ccc(Cl)cc1C(=O)c1ccccc1Cl)N=CC1CCCN1C2=O (stereo not given) :: 32.9
O=C(Nc1ccc(Cl)c(Cl)c1)c1ccc(NC2=C(Cl)C(=O)N(Cc3ccccc3)C2=O)cc1 :: 42.1
CC(=O)C1=C(C)N(Cc2ccccc2)C2(O)C=CC(=O)C3=C(O)c4ccccc4C(=O)C312 (stereo not given) :: 44.3
CCN(CC)CCOc1nc2ccccc2c2c1-c1ccc(OC)cc1C2=O :: 6.83
CCN1CCN(C(=O)[C@]23CC[C@@H](C)[C@H](C)[C@@H]2C2=CC[C@@H]4[C@@]5(C)CCC(=O)C(C)(C)[C@@H]5CC[C@@]4(C)[C@]2(C)CC3)CC1 :: 4.74
Clc1ccc2c(NC3CCC(N4CCCCC4)CC3)ccnc2c1 (stereo not given) :: 78.6
CCC(=O)NC1=C(Cl)C(=O)C(NC(=O)CC)=C(Cl)C1=O :: 29

Result for Nc1nc(N)c2c(ccc3c2ccn3Cc2cccc([N+](=O)[O-])c2)n1 , tested on OVCAR-4 ovarian, TGI: 2.59

Result for COc1ccc2c3ccnc(C(F)(F)F)c3n(CCCCN)c2c1 , tested on OVCAR-4 ovarian, TGI: 25.5

Result for Cc1cc(I)cc(CN(C)CCCN2CCC(C)CC2)c1O , tested on OVCAR-4 ovarian, TGI: 31.7

Result for Cc1ccc2sc3c(NCCCN)nc4ccccc4c3c(=O)c2c1 , tested on OVCAR-4 ovarian, TGI: 4.69

Result for Cn1nc(C(F)(F)F)cc1-c1cc(Cl)c(OCc2ccc(Cl)cc2)c(-c2ccc(Cl)c(C(F)(F)F)c2)c1O , tested on OVCAR-4 ovarian, TGI: 7.14

* * *

System: HCC-2998 colon
Assay: NCI tumour cell line growth inhibition, 48 h
Respond with TRUE for TGI values of 4 µM and above, FALSE for values below.

CCN1CCN(c2ccc(NC(=O)Nc3nc4ccc(-c5ccccc5OC)cc4s3)cc2)CC1 :: FALSE

Record c1ccc2c(N=NSc3ncnc4nc[nH]c34)c3ccccc3nc2c1 ; criterion: TGI no lower than 4 µM. Met?
FALSE

Record C[C@@H]1CC[C@@H]2[C@@H]1[C@H](OC(=O)/C=C/C1CCCCC1)[C@]1(C3CCCCC3)C[C@@H](OC(=O)CO)[C@@]2(C)O1 ; criterion: TGI no lower than 4 µM. Met?
TRUE

Record CN(C)C(=O)N1N[C@H](c2ccccc2)[C@@H]1c1ccccc1 ; criterion: TGI no lower than 4 µM. Met?
TRUE

Record COC(=O)NC(Cc1ccccc1)NC(=O)OC(C)(C)C (stereo not drawn) ; criterion: TGI no lower than 4 µM. Met?
TRUE

Record COc1ccc(N=NC2=C(O)CCC2=O)cc1 ; criterion: TGI no lower than 4 µM. Met?
TRUE

Record Cc1[nH]nc(C(F)(F)F)c1Cc1sc2c(c1C(=O)N1C[C@](C)(O)CO1)c(=O)n(C)c(=O)n2C(C)C ; criterion: TGI no lower than 4 µM. Met?
TRUE

Record O=c1c(O)c(-c2ccccc2)oc2c(CP(=O)(O)O)cccc12 ; criterion: TGI no lower than 4 µM. Met?
TRUE

Record C[C@]12CCC(=O)C=C1C[C@@H](O)[C@@H]1[C@@H]2CC[C@@]2(C)[C@H]1CC[C@]2(C)O ; criterion: TGI no lower than 4 µM. Met?
TRUE

Record C[Si](C)(C)OC1(C#N)c2ccccc2CCCC12CCCC2 (stereo not drawn) ; criterion: TGI no lower than 4 µM. Met?
TRUE

Record Cc1cc(N(CCC#N)CCC#N)ccc1/C(N=Nc1ccc(C(=O)O)cc1)=N\NC(=O)c1ccccc1 ; criterion: TGI no lower than 4 µM. Met?
TRUE

Record CCOC(=O)c1nc2ccccc2nc1Nc1ccc(C(=O)OC)s1 ; criterion: TGI no lower than 4 µM. Met?
TRUE

* * *

System: CAKI-1 renal
Test: NCI tumour cell line growth inhibition, 48 h; in the data active means GI50 below about 0.43 µM; inactive means the rest
Select the correct class. Options are 1.0 (active), 0.0 (inactive) and nothing else.

Consider the worked cases shown below.
CCCCCCC(=O)NC1=C(N2CC2)C(=O)C(NC(=O)CCCCCC)=C(N2CC2)C1=O :: 0.0
Oc1c(C(c2ccc(F)cc2)N2CCCCC2)ccc2cncnc12 (stereo unspecified) :: 0.0
Cc1ccc2sc3c(NCCCN)nc4ccccc4c3c(=O)c2c1 :: 0.0
Clc1cnc(Nc2ccc(OCCN3CCCC3)cc2)nc1NCc1ccco1 :: 0.0
CC1=CC2(C)/C=C(C)/C=C\CC(O)/C=C3/C=CC(=C4C(=O)OC2(CC1C)C4=O)OC3 (stereo unspecified) :: 0.0

What outcome does the record of this test show for O=C(Nc1ccc(Cl)c(Cl)c1)c1ccc(NC2=C(Cl)C(=O)N(Cc3ccccc3)C2=O)cc1 ?
0.0

What outcome does the record of this test show for Nc1nc(-c2ccc3c(c2)/C(=C\c2cc(Br)c(O)c(Br)c2)C(=O)N3)cs1 ?
0.0
